Taken from the supplement of paper PMC11061612.

System: SBC-3 (Small Cell Lung Carcinoma);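 note: after 72 h of two-drug dosing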
Assay: Bliss excess, mean over the matrix (fraction); higher = more synergy
OBSERVED PROPERTY: Bliss excess
Give a plain numeric answer without units written out.

Need Bliss excess of CN(CCO)CC[C@H](CSc1ccccc1)Nc1ccc(S(=O)(=O)NC(=O)c2ccc(N3CCC([C@@H](O)c4ccccc4-c4ccc(Cl)cc4)CC3)cc2)cc1S(=O)(=O)C(F)(F)F [AZD4320] + CS(=O)(=O)CCNCc1ccc(-c2ccc3ncnc(Nc4ccc(OCc5cccc(F)c5)c(Cl)c4)c3c2)o1 [Lapatinib] (first compound max 1 µM, 7x7, partner max 10 µM) , thanks.
0.052

Need Bliss excess of CN(CCO)CC[C@H](CSc1ccccc1)Nc1ccc(S(=O)(=O)NC(=O)c2ccc(N3CCC([C@@H](O)c4ccccc4-c4ccc(Cl)cc4)CC3)cc2)cc1S(=O)(=O)C(F)(F)F [AZD4320] + Nc1ccn([C@@H]2O[C@H](CO)[C@@H](O)C2(F)F)c(=O)n1 [Gemcitabine] (first compound max 1 µM, 7x7, partner max 0.3 µM) , thanks.
0.0194

Need Bliss excess of C[C@@H]1COCCN1c1cc(C2([S@](C)(=N)=O)CC2)nc(-c2ccnc3[nH]ccc23)n1 [AZD6738] + Nc1ccn([C@@H]2O[C@H](CO)[C@@H](O)C2(F)F)c(=O)n1 [Gemcitabine] (first compound max 10 µM, 7x7, partner max 0.3 µM) , thanks.
0.0306

Need Bliss excess of Cc1c2c(nn1C)CSCc1cc(n(C)n1)CSc1cc(c3ccccc3c1)OCCCc1c(C(=O)O)n(C)c3c-2c(Cl)ccc13 [AZD5991] + C1CN(CCC1(C(=O)N[C@@H](CCO)C2=CC=C(C=C2)Cl)N)C3=NC=NC4=C3C=CN4 [Capivasertib] (first compound max 1 µM, 7x7, partner max 3 µM) , thanks.
-0.0316

Need Bliss excess of CN(C)CCCOc1ccc(-c2ccc3ncc4c(c3c2)n(C2CCOCC2)c(=O)n4C)cn1 [AZD0156] + C=CCn1c(=O)c2cnc(Nc3ccc(N4CCN(C)CC4)cc3)nc2n1-c1cccc(C(C)(C)O)n1 [AZD1775] (first compound max 1 µM, partner max 1 µM) , thanks.
-0.0451

Need Bliss excess of Cc1c2c(nn1C)CSCc1cc(n(C)n1)CSc1cc(c3ccccc3c1)OCCCc1c(C(=O)O)n(C)c3c-2c(Cl)ccc13 [AZD5991] + CS(=O)(=O)CCNCc1ccc(-c2ccc3ncnc(Nc4ccc(OCc5cccc(F)c5)c(Cl)c4)c3c2)o1 [Lapatinib] (first compound max 1 µM, 7x7, partner max 10 µM) , thanks.
-0.0235

Need Bliss excess of COc1nnc2ccc(N3CCC(c4ccc(OCCN5CCN(C)C(=O)[C@H]5C)cc4)CC3)nn12 [AZD5153] + Cn1cnc2c(F)c(Nc3ccc(Br)cc3Cl)c(C(=O)NOCCO)cc21 [Selumetinib] (first compound max 1 µM, 7x7, partner max 10 µM) , thanks.
-0.0811

----------
Test system: SK-MEL-24 (Melanoma)
Experiment: combination Emax (second highest fraction inhibited in the dose matrix, 72 h); higher = more inhibition; extreme values may be limits of the assay
OBSERVED PROPERTY: combination Emax
Give a plain numeric answer without units written out.

Need combination Emax of CC1(C)CCC(CN2CCN(c3ccc(C(=O)NS(=O)(=O)c4ccc(NCC5CCOCC5)c([N+](=O)[O-])c4)c(Oc4cnc5[nH]ccc5c4)c3)CC2)=C(c2ccc(Cl)cc2)C1 [Venetoclax] + C[C@@H]1COCCN1C2=NC(=NC(=C2)C3(CC3)[S@](=N)(=O)C)C4=C5C=CNC5=NC=C4 [AZD6738] (first compound max 1 µM, 7x7, partner max 10 µM) , thanks.
0.454

Need combination Emax of CN(CCO)CC[C@H](CSc1ccccc1)Nc1ccc(S(=O)(=O)NC(=O)c2ccc(N3CCC([C@@H](O)c4ccccc4-c4ccc(Cl)cc4)CC3)cc2)cc1S(=O)(=O)C(F)(F)F [AZD4320] + Cc1cc2ncnn2cc1Nc1ncc2c(n1)n(C1CCOCC1)c(=O)n2C [AZD7648] (first compound max 1 µM, 7x7, partner max 10 µM) , thanks.
0.252

Need combination Emax of C[C@@H]1COCCN1c1cc(C2([S@](C)(=N)=O)CC2)nc(-c2ccnc3[nH]ccc23)n1 [AZD6738] + O=C(c1cc(Cc2n[nH]c(=O)c3ccccc23)ccc1F)N1CCN(C(=O)C2CC2)CC1 [Olaparib] (first compound max 10 µM, 7x7, partner max 10 µM) , thanks.
0.551

Need combination Emax of CN(C)CCCOc1ccc(-c2ccc3ncc4c(c3c2)n(C2CCOCC2)c(=O)n4C)cn1 [AZD0156] + C[C@@H]1COCCN1C2=NC(=NC(=C2)C3(CC3)[S@](=N)(=O)C)C4=C5C=CNC5=NC=C4 [AZD6738] (first compound max 1 µM, 7x7, partner max 10 µM) , thanks.
0.457

Need combination Emax of COc1cccc(OCCCN)c1-c1cc(Nc2cnc(C#N)cn2)n[nH]1 [Prexasertib] + C=CCn1c(=O)c2cnc(Nc3ccc(N4CCN(C)CC4)cc3)nc2n1-c1cccc(C(C)(C)O)n1 [AZD1775] (first compound max 1 µM, partner max 1 µM) , thanks.
0.703

Need combination Emax of CS(=O)(=O)CCNCc1ccc(-c2ccc3ncnc(Nc4ccc(OCc5cccc(F)c5)c(Cl)c4)c3c2)o1 [Lapatinib] + Cn1cnc2c(F)c(Nc3ccc(Br)cc3Cl)c(C(=O)NOCCO)cc21 [Selumetinib] (first compound max 10 µM, 7x7, partner max 10 µM) , thanks.
0.853

Need combination Emax of CN(C)CCCOc1ccc(-c2ccc3ncc4c(c3c2)n(C2CCOCC2)c(=O)n4C)cn1 [AZD0156] + O=C(c1cc(Cc2n[nH]c(=O)c3ccccc23)ccc1F)N1CCN(C(=O)C2CC2)CC1 [Olaparib] (first compound max 3 µM, partner max 3 µM) , thanks.
0.227
